Tested on: sterol biosynthesis in L cells
Test: Inhibition of sterol synthesis from [1-14C]acetate in L cell cultures
Assay type: cell-based
Settings: Mus musculus; L cell cultures; read-out: Concentrations Required for 50% Inhibition of Sterol Synthesis
# IC50 per entry
Number in µM, nothing else.

>>> endpoint_result("CC(C)CCC[C@@H](C)[C@H]1CC(O)C2=C3C(O)C[C@H]4C[C@@H](O)CC[C@]4(C)[C@H]3CC[C@@]21C (some centres unmarked)")
5
>>> endpoint_result("CC(C)CCC[C@@H](C)[C@H]1CC(=O)C2=C3CC[C@H]4C[C@H](O)CC[C@]4(C)[C@H]3CC[C@@]21C")
0.5
>>> endpoint_result("CC(C)CCC[C@@H](C)[C@H]1CC(=O)C2=C3CC[C@H]4C[C@@H](O)CC[C@]4(C)[C@H]3CC[C@@]21C")
0.1

The reported IC50 of the compound CC(C)CCC[C@@H](C)[C@H]1CC(=O)C2=C3CC[C@H]4C[C@@H](OC(=O)CCC(=O)O)CC[C@]4(C)[C@H]3CC[C@@]21C was 3.2
